# ASSAYED SYSTEM: T1, recombinant human IL-23 (human, UniProt P29460 23-328)
# T1 sequence 1: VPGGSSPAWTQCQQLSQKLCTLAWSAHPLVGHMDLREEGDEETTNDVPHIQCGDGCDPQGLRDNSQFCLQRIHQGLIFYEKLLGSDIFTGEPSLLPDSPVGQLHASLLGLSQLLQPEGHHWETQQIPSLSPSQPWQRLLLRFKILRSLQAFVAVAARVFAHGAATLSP
# T1 sequence 2: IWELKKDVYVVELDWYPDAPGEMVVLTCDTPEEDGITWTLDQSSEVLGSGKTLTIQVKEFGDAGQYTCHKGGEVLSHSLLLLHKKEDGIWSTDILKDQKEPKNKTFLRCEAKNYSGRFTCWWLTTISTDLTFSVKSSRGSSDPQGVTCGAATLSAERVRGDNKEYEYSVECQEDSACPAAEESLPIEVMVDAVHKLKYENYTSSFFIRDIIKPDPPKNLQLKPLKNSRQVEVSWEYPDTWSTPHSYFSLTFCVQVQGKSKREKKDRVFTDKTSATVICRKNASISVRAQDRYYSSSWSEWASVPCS
# EXPERIMENTAL PROTOCOL: cell-based or functional assay
Reported IC50, inhibition of IL-17 production from IL-23 stimulated mouse splenocytes values follow for various binders
MEASURE: IC50, inhibition of IL-17 production from IL-23 stimulated mouse splenocytes

>  <BINDER>
18D3 (antibody, V domains shown) VH: EVQLQQSGPELVKPGASVKMSCKASGYTFTRYLIHWVKQKPGQGLEWIGYINPYNDGTKYNEKFKGKATLTSDKSSSTAYMELSSLTSEDSAVYYCTSNWDLDYWGQGTTLTVSS VL: DIVMTQSPATLSVTPGDRVSLSCRASQSISDYLYWYQQKSHESPRLLIKFASQSISGIPSRFTGSGSGSDFTLSIDSVEPDDVGVFFCQNGHSFPFTFGGGTKLEIK

>  <MEASURED RESULT>
0.234 nM

$$$$
>  <BINDER>
Chimeric 22E2 (antibody, V domains shown) VH: EVQLQQSGPELVKPGASVKMSCKASGYTFTSSIIHWVKQRPGQGLEWIGYINPYDDVTKYNEKFKGKATLTSDKSSSTAYMELSSLTSEDSAVYYCARRWDESYWGQGTLVTVSA VL: DIVMTQSPATLSVTPGDRVSLSCRASQSISVYLHWYQQKSPESPRLLIKYASQSISGIPSRFSGSGSGSDFTLSINSVEPEDVGVYYCQNGHSFPFTFGSGTKLEIK

>  <MEASURED RESULT>
0.1 nM

$$$$
>  <BINDER>
34G3 (antibody, V domains shown) VH: EFQLQQSGPELVKPGASVKISCKASGYSFTDYNMNWVKQSKGKSLEWIGVIIPNYGFTSYNQNFKGKATLTVDQSSSTAHMQLNSVTSEDSAVYYCVRDGGILLWYLDVWGTGTTVTVSS VL: DVVMTQTPLSLPVSLGDQASISCRSSQSLVHSNGNTYLHWYLQKPGQSPKLLIYKVSNRFSGVPDRFSGSGSGTDFTLKISRVEAEDLGVYFCSQSTHVPYTFGGGTKLEIN

>  <MEASURED RESULT>
0.336 nM

$$$$
